target: HIF-PH2 (Homo sapiens, UniProt Q9GZT9); construct: made in house; host or cells: insect Hi5 cells; assay: HIF-PH assay (14CO2 capture, peptide-dependent turnover); format: biochemical; settings: compound concentration 22.22 μM
Sequence (Q9GZT9 whole entry, species assumed): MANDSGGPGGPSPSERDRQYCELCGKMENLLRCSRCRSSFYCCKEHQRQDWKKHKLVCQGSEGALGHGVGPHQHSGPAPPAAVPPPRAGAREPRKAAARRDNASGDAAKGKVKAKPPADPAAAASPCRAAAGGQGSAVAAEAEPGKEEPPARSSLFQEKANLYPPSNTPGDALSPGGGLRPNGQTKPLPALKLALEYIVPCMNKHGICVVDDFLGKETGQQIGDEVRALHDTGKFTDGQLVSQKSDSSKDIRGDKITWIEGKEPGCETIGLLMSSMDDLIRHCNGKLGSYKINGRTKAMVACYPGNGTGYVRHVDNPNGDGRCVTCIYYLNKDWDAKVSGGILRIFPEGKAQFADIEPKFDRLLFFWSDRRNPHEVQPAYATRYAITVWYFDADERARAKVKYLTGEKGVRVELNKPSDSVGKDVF
Readout label: inhibition at 22.22 µM

• Cc1nsc2c(O)c(C(=O)NCC(=O)O)nc(-c3ccccc3)c12 [Example 31] = 98%
• Cc1nsc2c(O)c(C(=O)NCC(=O)O)nc(-c3cnccn3)c12 [Example 41] = 98%
• O=C(O)CNC(=O)c1ncc2snc(-c3ccccc3)c2c1O [Example 43] = 97%
